- TGT: Fatty-acid amide hydrolase 1 (Rattus norvegicus)
- Sequence (whole entry): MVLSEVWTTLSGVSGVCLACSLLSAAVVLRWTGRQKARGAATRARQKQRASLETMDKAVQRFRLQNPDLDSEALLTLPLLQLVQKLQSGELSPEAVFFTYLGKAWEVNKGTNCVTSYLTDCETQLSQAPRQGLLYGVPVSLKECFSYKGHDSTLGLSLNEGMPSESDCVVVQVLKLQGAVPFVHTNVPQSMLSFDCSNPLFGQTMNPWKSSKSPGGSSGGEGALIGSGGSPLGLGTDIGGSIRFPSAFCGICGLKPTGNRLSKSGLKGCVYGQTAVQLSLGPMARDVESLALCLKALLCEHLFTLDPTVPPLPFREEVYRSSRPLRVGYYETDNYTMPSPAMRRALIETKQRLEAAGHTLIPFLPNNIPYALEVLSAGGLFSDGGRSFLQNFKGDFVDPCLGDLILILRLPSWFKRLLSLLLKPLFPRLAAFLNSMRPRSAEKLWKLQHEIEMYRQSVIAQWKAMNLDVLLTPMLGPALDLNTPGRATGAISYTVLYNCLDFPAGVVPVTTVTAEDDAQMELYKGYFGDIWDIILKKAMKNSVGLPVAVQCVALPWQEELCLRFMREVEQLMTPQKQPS
- TEST METHOD NOTES: Inhibition of Sprague-Dawley rat brain microsome FAAH assessed as reduction in 4-pyren-1-ylbutanoic acid release after 60 mins by reverse phase HPLC-based fluorescence method
Active and inactive are the calls of the source. No cut-off for these calls is given here.
READOUT TYPE: inhibition

INSERT INTO measurements (chemical_string, experimental_result) VALUES
  ('CCCCCCCCCCCC(=O)c1ncc(CCCCCCSCCCN(C)C)o1', 'inactive'),
  ('CCCCCCCCCCCC(=O)c1ncc(CCCCSCCC[N+](C)(C)C)o1', 'inactive'),
  ('CCCCCCCCCCCC(=O)c1ncc(CCSCCC[N+](C)(C)C)o1', 'inactive'),
  ('CCCCCCCCCCCC(=O)c1ncc(CCCCSCCCN(C)C)o1', 'inactive'),
  ('CCCCCCCCCCCC(=O)c1ncc(CCCCCCSCCC[N+](C)(C)C)o1', 'inactive'),
  ('CCCCCCCCCCCC(=O)c1ncc(CCCCS(=O)(=O)CCCN(C)C)o1', 'inactive'),
  ('CCCCCCCCCCCC(=O)c1ncc(CCCCCCS(=O)(=O)CCCN(C)C)o1', 'inactive'),
  ('CCCCCCCCCCCC(=O)c1ncc(CCCCCS(=O)(=O)CCCN(C)C)o1', 'inactive'),
  ('CCCCCCCCCCCC(=O)c1ncc(CCCCCCS(=O)(=O)CCC[N+](C)(C)C)o1', 'inactive'),
  ('CCCCCCCCCCCC(=O)c1ncc(CCCCS(=O)(=O)CCC[N+](C)(C)C)o1', 'inactive'),
  ('CCCCCCCCCCCC(=O)c1ncc(CCCSCCCN(C)C)o1', 'inactive'),
  ('CCCCCCCCCCCC(=O)c1ncc(CCSCCCN(C)C)o1', 'inactive'),
  ('CCCCCCCCCCCC(=O)c1ncc(CCCCCSCCCN(C)C)o1', 'inactive'),
  ('CCCCCCCCCCCC(=O)c1ncc(CCCCCS(=O)(=O)CCC[N+](C)(C)C)o1', 'inactive');
